target: GlcNAc(b1-3)Gal(b1-4)GlcNAc(b1-3)[GlcNAc(b1-3)Gal(b1-4)GlcNAc(b1-3)]GalNAc; assay: glycan array binding signal (z-score within array); higher = stronger binding; settings: glycan notation: IUPAC condensed, linker removed
About 410 targets per protein were measured; listed, in parts, are those with the strongest signals and a random draw of the rest.
Quick list: glycan array binding signal (z-score) per entry.
# print the numeric value only

DC-ASGPR-short (Homo sapiens) (protein) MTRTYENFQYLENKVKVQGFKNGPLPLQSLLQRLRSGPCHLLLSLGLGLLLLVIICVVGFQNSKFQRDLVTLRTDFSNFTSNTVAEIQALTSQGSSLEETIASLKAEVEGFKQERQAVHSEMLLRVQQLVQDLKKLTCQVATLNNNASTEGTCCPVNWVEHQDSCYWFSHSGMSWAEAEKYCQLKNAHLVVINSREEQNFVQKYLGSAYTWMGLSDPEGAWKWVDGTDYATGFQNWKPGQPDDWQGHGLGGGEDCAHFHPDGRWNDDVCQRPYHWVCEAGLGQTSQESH: -0.295

Q: If you can, please state the reported glycan array binding signal (z-score) value of Mincle (Bos taurus) (protein) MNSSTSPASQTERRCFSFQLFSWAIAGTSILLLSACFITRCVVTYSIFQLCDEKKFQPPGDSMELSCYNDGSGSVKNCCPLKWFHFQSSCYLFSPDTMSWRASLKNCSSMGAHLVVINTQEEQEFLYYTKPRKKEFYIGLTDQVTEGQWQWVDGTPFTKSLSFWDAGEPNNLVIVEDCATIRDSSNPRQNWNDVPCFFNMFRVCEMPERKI .
A: 0.084

Q: If you can, please state the reported glycan array binding signal (z-score) value of PpFlo1 (Pichia pastoris) (protein) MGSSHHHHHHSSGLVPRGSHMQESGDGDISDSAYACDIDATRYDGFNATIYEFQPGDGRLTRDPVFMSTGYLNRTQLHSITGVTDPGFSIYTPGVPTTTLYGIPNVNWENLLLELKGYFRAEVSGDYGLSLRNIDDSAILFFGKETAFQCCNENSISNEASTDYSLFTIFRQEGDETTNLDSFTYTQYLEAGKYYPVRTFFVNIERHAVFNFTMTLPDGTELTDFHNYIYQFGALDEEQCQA .
A: -0.39

src = the supplement of paper PMC8728848
